biological target: SUMO (Homo sapiens, UniProt Q9UBT2); assay: SUMO activity (Table I, biological activities); type: biochemical; parameters: key: + (less active); ++ (active); +++ (most active)
Sequence (Q9UBT2 whole entry): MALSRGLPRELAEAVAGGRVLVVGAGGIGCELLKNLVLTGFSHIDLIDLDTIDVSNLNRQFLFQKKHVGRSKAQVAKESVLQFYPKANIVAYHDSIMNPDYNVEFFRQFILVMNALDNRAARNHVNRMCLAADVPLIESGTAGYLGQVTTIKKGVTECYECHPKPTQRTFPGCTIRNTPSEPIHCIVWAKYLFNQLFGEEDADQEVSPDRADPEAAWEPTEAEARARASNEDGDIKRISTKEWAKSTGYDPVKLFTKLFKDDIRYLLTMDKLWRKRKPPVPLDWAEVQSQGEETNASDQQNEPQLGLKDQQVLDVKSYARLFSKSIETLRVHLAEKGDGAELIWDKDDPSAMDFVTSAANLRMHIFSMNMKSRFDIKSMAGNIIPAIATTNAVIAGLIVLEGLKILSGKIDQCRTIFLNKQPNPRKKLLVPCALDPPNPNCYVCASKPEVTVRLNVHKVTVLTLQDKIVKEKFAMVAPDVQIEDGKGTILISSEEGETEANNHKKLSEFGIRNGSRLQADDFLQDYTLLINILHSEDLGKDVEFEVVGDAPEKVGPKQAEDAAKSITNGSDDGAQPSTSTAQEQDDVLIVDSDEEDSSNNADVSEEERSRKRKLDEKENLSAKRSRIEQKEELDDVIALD
Sequence (Q9UBE0 whole entry partner): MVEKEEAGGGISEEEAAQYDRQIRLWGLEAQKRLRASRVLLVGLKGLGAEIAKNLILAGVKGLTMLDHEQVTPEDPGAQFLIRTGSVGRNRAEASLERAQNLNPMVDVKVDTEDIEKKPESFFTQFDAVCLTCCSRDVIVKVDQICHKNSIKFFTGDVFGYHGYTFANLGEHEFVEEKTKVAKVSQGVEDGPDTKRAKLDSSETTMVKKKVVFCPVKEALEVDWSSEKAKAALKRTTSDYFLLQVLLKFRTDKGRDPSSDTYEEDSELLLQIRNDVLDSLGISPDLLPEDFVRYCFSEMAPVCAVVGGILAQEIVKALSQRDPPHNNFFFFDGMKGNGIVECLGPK
outcome-measure: SUMO

COC(=O)C1=C(C(=O)Nc2ccc(C)c(F)c2)C2C=CC1(C(Oc1ccccc1)c1ccc(CN3CCOCC3)cc1)O2 (stereo not shown) : +
COC(=O)C1=C(C(=O)NC2CCN(C(=O)C3CC3)CC2)C2C=CC1(C(Cc1ccccc1)Nc1ccccc1)O2 (stereo not shown) : ++
COC(=O)C1=C(C(=O)NCCN(C)C)C2(C)C=CC1(C(Cc1ccccc1)Nc1ccccc1)O2 (stereo not shown) [Compound 619] : ++
COC(=O)C1=C(C(=O)Nc2ccc(N3CCN(C)CC3)c(F)c2)C2C=CC1(C(Cc1ccccc1)Nc1ccccc1)O2 (stereo not shown) : +
COC(=O)C1=C(C(=O)NC2CCN(C(=O)c3c(C)cccc3C)CC2)C2C=CC1(C(Cc1ccccc1)Nc1ccccc1)O2 (stereo not shown) : ++

Respectfully, I request SUMO for each entry included below.
1. COC(=O)C1=C(C(=O)NC2CCN(C(C)C)CC2)C2C=CC1(C(Cc1ccccc1)Nc1ccccc1)O2 (stereo not shown)
2. COC(=O)C1=C(C(=O)OC)C2(C(Cc3ccc(Cl)c(Cl)c3)Nc3ccccc3)C=CC1O2 (stereo not shown)

1: +++; 2: +++

Where these numbers come from: patent US11578079B2
